Test system: Candida albicans
Assay: Antifungal activity against Candida albicans assessed as reduction in fungal growth incubated for 12 hrs by microdilution method
Assay type: functional
Assign MIC to each entry below.
Give your result as the value with the unit written after it.

Consider the following illustrative entries.
>>> observed("C[C@H]1C[C@H]([C@H](O)CC2CC(=O)NC(=O)C2)C(=O)[C@@](C)(O)C1")
"12 µg/mL"
>>> observed("C[C@@H]1[C@H](O)[C@@H](C)/C=C/C=C/C=C/C=C/C=C/C=C/C=C/[C@H](O[C@@H]2O[C@H](C)[C@@H](O)[C@H](N)[C@@H]2O)C[C@@H]2O[C@](O)(C[C@@H](O)C[C@@H](O)[C@H](O)CC[C@@H](O)C[C@@H](O)CC(=O)O[C@H]1C)C[C@H](O)[C@H]2C(=O)O")
"0.75 µg/mL"
>>> observed("C[C@H](CO)C[C@@]1(C)OC(CC2(O)CC(=O)NC(=O)C2)=CC1=O")
"20 µg/mL"
>>> observed("C[C@H](CO)C[C@@]1(C)OC(CC2CC(=O)NC(=O)C2)=CC1=O")
"8 µg/mL"

# batch: return MIC for each of the 3 compounds below
1. C[C@@H]1C/C(=C/CC2CC(=O)NC(=O)C2)C(=O)[C@@H](C)[C@@H]1O
2. C[C@H]1C[C@@](C)(O)C[C@@H]([C@H](O)CC2CC(=O)NC(=O)C2)C1=O
3. C[C@H](CO)[C@@H]1OC(CC2CC(=O)NC(=O)C2)=CC(=O)[C@H]1C

Response:
1: 18 µg/mL; 2: 18 µg/mL; 3: 18 µg/mL

---

Tested on: U-251
Test: Antiproliferative activity against human U251 cells assessed as reduction in cell viability after 72 hrs by SRB assay
Format: functional, cell-based
Settings: Homo sapiens, U-251, 72 h; read-out: IC50
MEASUREMENT_NAME: IC50 (µM)
Numbers only, in µM.

>>> observed("C[C@@H]1C[C@@H]([C@H](O)CC2CC(=O)NC(=O)C2)C(=O)[C@@H](C)[C@@H]1O")
1.5
>>> observed("COc1cccc2c1C(=O)c1c(O)c3c(c(O)c1C2=O)C[C@@](O)(C(=O)CO)C[C@@H]3O[C@H]1C[C@H](N)[C@H](O)[C@H](C)O1 [DOXORUBICIN]")
6.8

With those in mind, consider the next compound.
Request: Report IC50, nothing else, for this compound: C[C@H]1C[C@@](C)(O)C[C@@H]([C@H](O)CC2CC(=O)NC(=O)C2)C1=O
Response: 0.05

---

Tested on: Candida albicans
Test: Antifungal activity against Candida albicans assessed as reduction in fungal growth incubated for 12 hrs by microdilution method
Format: functional
MEASUREMENT_NAME: MIC

Consider the following illustrative entries.
>>> observed("C[C@](O)(CO)C[C@@]1(C)OC(CC2CC(=O)NC(=O)C2)=CC1=O")
"18 µg/mL"
>>> observed("C[C@@H]1C[C@@H]([C@H](O)CC2CC(=O)NC(=O)C2)C(=O)[C@@H](C)[C@@H]1O")
"15 µg/mL"
>>> observed("C[C@@H]1C[C@@](C)(CO)O/C1=C\\C(=O)CC1CC(=O)NC(=O)C1")
"20 µg/mL"
>>> observed("C[C@@H]1C[C@](C)(CO)O/C1=C\\C(=O)CC1CC(=O)NC(=O)C1")
"16 µg/mL"

Request: Report MIC, nothing else, for this molecule: CC1=C[C@@](C)(CO)O/C1=C\C(=O)CC1CC(=O)NC(=O)C1
Response: 15 µg/mL
